biological target: TRAILR2 receptor on the surface of human tumor cells (human, UniProt O14763 56-440); assay: cell-based or functional assay
quantity.name: eff. (efficiency %), cytotoxic effect on Jurkat E6-1 cells
Answers are plain numbers, in %.

// known answers, use as guide
>  <binder>
Zapadcine-3c (antibody, V domains shown, MMAE coupled through linker MC-VC-PAB by thiol conventional coupling, cleavable; positions not given) VH: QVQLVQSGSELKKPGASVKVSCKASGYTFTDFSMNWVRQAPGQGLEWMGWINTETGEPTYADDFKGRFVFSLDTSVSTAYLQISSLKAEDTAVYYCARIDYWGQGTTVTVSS VL: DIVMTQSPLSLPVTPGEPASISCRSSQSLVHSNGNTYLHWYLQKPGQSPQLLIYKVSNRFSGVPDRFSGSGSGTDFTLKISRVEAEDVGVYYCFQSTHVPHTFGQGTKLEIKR

>  <unit.label>
%

>  <reported.result>
82

$$$$
>  <binder>
Zaptuzumab (antibody, V domains shown) VH: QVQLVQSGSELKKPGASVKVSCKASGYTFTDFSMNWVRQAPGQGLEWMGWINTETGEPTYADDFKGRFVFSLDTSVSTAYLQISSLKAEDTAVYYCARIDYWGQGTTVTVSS VL: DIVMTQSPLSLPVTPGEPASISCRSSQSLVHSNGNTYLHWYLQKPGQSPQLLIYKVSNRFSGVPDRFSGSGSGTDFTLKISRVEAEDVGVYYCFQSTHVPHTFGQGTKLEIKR

>  <unit.label>
%

>  <reported.result>
90.7

$$$$

Please look at the following binder next.
// lookup eff. (efficiency %), cytotoxic effect on Jurkat E6-1 cells for Zapadcine-3b (antibody, V domains shown, MMAE coupled through linker PY-MAA by thiol bridge coupling, non-cleavable; positions not given) VH: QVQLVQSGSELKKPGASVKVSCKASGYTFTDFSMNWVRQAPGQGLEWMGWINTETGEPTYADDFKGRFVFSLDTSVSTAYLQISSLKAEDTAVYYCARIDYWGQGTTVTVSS VL: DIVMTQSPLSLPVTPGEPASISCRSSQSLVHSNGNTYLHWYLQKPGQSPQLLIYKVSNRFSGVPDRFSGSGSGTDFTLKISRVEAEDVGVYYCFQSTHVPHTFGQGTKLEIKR
87.1
